Values were extracted from paper PMC12040169.

In this section we review reported viability at 28.5 h, 10 µM values for a set of molecules.
- Assay overview: in vitro
- Condition notes: human, hela cells, % viability
Number only, in %; omit the unit.

COc1ccc(OC)c(S(=O)(=O)N2CCN(C(=O)c3cc(-c4ccncc4)nc4c(C)cc(C)cc34)CC2)c1
103
CC(C)C(=O)N1CC2(CCN(CCc3c[nH]c4ccccc34)CC2)c2ccccc21
95.6
Cc1nn(C)cc1S(=O)(=O)N1CCn2cccc2C1C(C)C (stereo not shown)
99.8
Cc1cc2c(o1)CCc1sc(N(C)C(=O)C3CC(=O)N(C)C3)nc1-2 (stereo not shown)
75.6
Cc1cccc(-c2ncc(C(=O)NCCN3CCOCC3)cc2-c2ccc(O)cc2)c1
105
COc1ccc2[nH]cc(CCNC(=O)c3ccc4[nH]c(=O)[nH]c4c3)c2c1
93.4
O=C(N[C@H]1CCN2C(=O)c3cc(-c4cccs4)ccc3NC(=O)[C@H]12)c1cnccn1
116
Oc1cccnc1SCc1nc2ccccc2s1
112
CN(Cc1ccc2c(c1)OCO2)C(=O)c1cnn2c(-c3ccccc3)ccnc12
95
O=C(O)C[C@@H]1CCN(C(=O)c2ccc3c(c2)OCO3)C[C@@H]1CC1=NCCc2ccccc21
110

Short answer for COc1ccc(C(=O)Nc2cccc3nsnc23)cc1OC : viability at 28.5 h, 10 µM was 92.2

Short answer for Cc1ccccc1OCCCNCCN1CCOCC1 [CBK268590C] : viability at 28.5 h, 10 µM was 106

Short answer for O=C(CN1CCOCC1)N/N=C/c1ccncc1 : viability at 28.5 h, 10 µM was 83.8

Short answer for CC1CCc2c(sc(NC(=O)c3cccs3)c2C(=O)N2CCOCC2)C1 (stereo not shown) : viability at 28.5 h, 10 µM was 100

Short answer for O=C(c1ccoc1)N1CCC2(CCCN(Cc3cc(=O)[nH]c(=O)[nH]3)C2)C1 (stereo not shown) : viability at 28.5 h, 10 µM was 97.8

Short answer for Cn1c(CCNC(=O)NC2CCCCC2)nc2cc([N+](=O)[O-])ccc21 : viability at 28.5 h, 10 µM was 95.7

Short answer for COc1cc(C(=O)N2CCC3(CC2)CC(=O)c2cc(C)ccc2O3)cc(OC)c1C : viability at 28.5 h, 10 µM was 99.6

Short answer for COCCNc1nc(-c2ccc(C(C)=O)s2)ccc1C(=O)N(C)CCN(C)C : viability at 28.5 h, 10 µM was 116

Short answer for Clc1cc(CSc2nnnn2-c2ccccc2)cc2c1OCCCO2 : viability at 28.5 h, 10 µM was 92.5

Short answer for COc1cccc(CN2CCN(CC(=O)N3CCCC3)[C@@H](C)C2)c1 : viability at 28.5 h, 10 µM was 78.1

Short answer for O=C(CCN1C(=O)c2cccc([N+](=O)[O-])c2C1=O)Nc1cccc(-c2cnc3ccccc3n2)c1 : viability at 28.5 h, 10 µM was 104

Short answer for CC(=O)Nc1ccc(C(=O)Nc2ccc(-c3nc4ccccc4[nH]3)cc2)cc1 : viability at 28.5 h, 10 µM was 84.9

Short answer for O=C1C=C([C@@H]2O[C@H](CO)[C@H](O)C2O)C(=O)N1 (stereo partly shown) : viability at 28.5 h, 10 µM was 101

Short answer for CN1CC[C@H](c2ccccc2)[C@@H]2[C@H]1CCCCN2C(=O)c1ccc(=O)oc1 : viability at 28.5 h, 10 µM was 93.2
